Recorded kon values for a group of binders are listed next.
Measured target: T1, CD137-hisFc fusion protein (Sino Biological Cat 10041-H03H) (human, UniProt Q07011 24-186)
T1 construct: Bought; also called recombinant human CD137 (fused with human Fc and His tag); not shown: His tag and human Fc
Protocol description: BLI Octet, Fab;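 also: fab fragments expressed in E. coli, binding to human CD137 measured on Octet RED96, kinetics fitted with a 1:1 Langmuir model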

Binder: Fab 5302 (Fab, V domains shown, Fab from E. coli; also called VH13/VL13) VH: EVQLVESGGGLVQPGGSLRLSCAASGFSLSTGGVGVAWIRQAPGKGLEWVSSISGYGSTTYYADSVKGRFTISRDNSKNTLYLQLNSLRAEDTAVYYCAREGSDAVLGDWFGYWGQGTLVTVSS VL: DIQLTQSPSSLSASVGDRVTITCQASQDITTYLAWYQQKPGKAPKLLIYDASNRATGIPSRFSGSGSGTDFTLTISSLQPEDFATYYCQQGYYLWTFGQGTKVEIKR
kon [M⁻¹ s⁻¹]: 350000
--
Binder: Fab 5408 (Fab, V domains shown, Fab from E. coli; also called VH36/VL36) VH: EVQLVESGGGLVQPGGSLRLSCAASGYSITSGYHWSWIRQAPGKGLEWVSSISGYGDTTYYADSVKGRFTISRDNSKNTLYLQLNSLRAEDTAVYYCAREGSDTVLGDWFAYWGQGTLVTVSS VL: DIQLTQSPSSLSASVGDRVTITCQASQDIRTYLAWYQQKPGKAPKLLIYDASNLETGVPSRFSGSGSGTDFTLTISSLQPEDFATYYCQQGYSIWTFGQGTKVEIKR
kon [M⁻¹ s⁻¹]: 320000
--
Binder: Fab 5342 (Fab, V domains shown, Fab from E. coli; also called VH21/VL21) VH: EVQLVESGGGLVQPGGSLRLSCAASGFSLSTGGVAVGWIRQAPGKGLEWLALIDWAGDKSYSTSLKSRLTISRDNSKNTLYLQLNSLRAEDTAVYYCAREGEDAVTGDWFAYWGQGTLVTVSS VL: DIQLTQSPSSLSASVGDRVTITCQASQDIRTYLAWYQQKPGKAPKLLIYDASNRATGIPSRFSGSGSGTDFTLTISSLQPEDFATYYCQQGYSIWTFGQGTKVEIKR
kon [M⁻¹ s⁻¹]: 160000
--
Binder: Fab 5299 (Fab, V domains shown, Fab from E. coli; also called VH11/VL11) VH: EVQLVESGGGLVQPGGSLRLSCAASGYSISSGHYWGWIRQAPGKGLEWLALIDWYGDKYYSTSLKSRLTISRDNSKNTLYLQLNSLRAEDTAVYYCARSDYYGSHFDYWGQGTLVTVSS VL: DIQLTQSPSSLSASVGDRVTITCRASESVDFDGFSFLAWYQQKPGKAPKLLIYDASNLETGVPSRFSGSGSGTDFTLTISSLQPEDFATYYCQQYDTLPRTFGQGTKVEIKR
kon [M⁻¹ s⁻¹]: 560000
--
Binder: Fab 5303 (Fab, V domains shown, Fab from E. coli; also called VH14/VL14) VH: EVQLVESGGGLVQPGGSLRLSCAASGFSLSTSGVAVGWIRQAPGKGLEWLALIDWADDKYYSPSLKSRLTISRDNSKNTLYLQLNSLRAEDTAVYYCAREGSDAVLGDWFAYWGQGTLVTVSS VL: DIQLTQSPSSLSASVGDRVTITCRASQDISTFLAWYQQKPGKAPKLLIYDASSLESGVPSRFSGSGSGTDFTLTISSLQPEDFATYYCQQAYSIWTFGQGTKVEIKR
kon [M⁻¹ s⁻¹]: 1e+06
--
Binder: Fab 5409 (Fab, V domains shown, Fab from E. coli; also called VH37/VL37) VH: EVQLVESGGGLVQPGGSLRLSCAASGYSISSGHHWAWIRQAPGKGLEWVSVISGSGSSTYYADSVKGRFTISRDNSKNTLYLQLNSLRAEDTAVYYCAREGSDTVLGDWFAYWGQGTLVTVSS VL: DIQLTQSPSSLSASVGDRVTITCRASQGISSYLAWYQQKPGKAPKLLIYDASNLETGVPSRFSGSGSGTDFTLTISSLQPEDFATYYCQQGYSTWTFGQGTKVEIKR
kon [M⁻¹ s⁻¹]: 250000
--
Binder: Fab 5360 (Fab, V domains shown, Fab from E. coli; also called VH28/VL28) VH: EVQLVESGGGLVQPGGSLRLSCAASGYSITSGHYWNWIRQAPGKGLEWVSGISGDGSSTYYADSVKGRFTISRDNSKNTLYLQLNSLRAEDTAVYYCARGGSDAVLGDWFAYWGQGTLVTVSS VL: DIQLTQSPSSLSASVGDRVTITCRASQSISSYLAWYQQKPGKAPKLLIYDASNLETGVPSRFSGSGSGTDFTLTISSLQPEDFATYYCQQGYSTWTFGQGTKVEIKR
kon [M⁻¹ s⁻¹]: 120000
